Entries and their measured MIC follow.
Test system: Strep. faecalis HH 34358
Experiment: In vitro antibacterial activity (MIC)
Type: cell-based
Conditions: Enterococcus faecalis, HH34358; Strep. faecalis HH 34358, in vitro

molecule: Cc1nnc(SCC2=C(C(=O)O)N3C(=O)C(NC(=O)[C@H](N)c4ccc(OCC(N)=O)cc4)C3SC2)s1 (stereo partly shown) [Compound No. 71816]
target_of_assay: Strep. faecalis HH 34358
MIC: 25 µg/mL

molecule: CC1=C(C(=O)O)N2C(=O)C(NC(=O)[C@H](N)c3ccc(NCC(=O)O)cc3)C2SC1 (stereo partly shown) [Compound No. 51436]
target_of_assay: Strep. faecalis HH 34358
MIC: 200 µg/mL

molecule: COC(=O)COc1ccc([C@@H](N)C(=O)NC2C(=O)N3C(C(=O)O)=C(CSc4c[nH]nn4)CSC23)cc1 (stereo partly shown) [Compound No. 19736]
target_of_assay: Strep. faecalis HH 34358
MIC: 100 µg/mL

molecule: COC(=O)COc1ccc([C@@H](N)C(=O)NC2C(=O)N3C(C(=O)O)=C(CSc4nnc(C)s4)CSC23)cc1 (stereo partly shown) [Compound No. 96826]
target_of_assay: Strep. faecalis HH 34358
MIC: 25 µg/mL

molecule: COC(=O)CNc1ccc([C@@H](N)C(=O)NC2C(=O)N3C(C(=O)O)=C(CSc4nnc(C)s4)CSC23)cc1 (stereo partly shown) [Compound No. 96146]
target_of_assay: Strep. faecalis HH 34358
MIC: 25 µg/mL

molecule: Cc1nnc(SCC2=C(C(=O)O)N3C(=O)C(NC(=O)[C@H](N)c4ccc(NCC(=O)O)cc4)C3SC2)s1 (stereo partly shown) [Compound No. 48536]
target_of_assay: Strep. faecalis HH 34358
MIC: 100 µg/mL

molecule: Cc1nnc(SCC2=C(C(=O)O)N3C(=O)C(NC(=O)[C@H](N)c4ccc(SCC(=O)O)cc4)C3SC2)s1 (stereo partly shown) [Compound No. 03616]
target_of_assay: Strep. faecalis HH 34358
MIC: 100 µg/mL

molecule: Cc1nnc(SCC2=C(C(=O)O)N3C(=O)C(NC(=O)C(N)c4ccc(OCC(N)=O)cc4)C3SC2)s1 (stereo not shown) [*71816]
target_of_assay: Strep. faecalis HH 34358
MIC: 200 µg/mL

molecule: COC(=O)COc1ccc([C@@H](N)C(=O)NC2C(=O)N3C(C(=O)O)=C(C)CSC23)cc1 (stereo partly shown) [Compound No. 07826]
target_of_assay: Strep. faecalis HH 34358
MIC: 100 µg/mL

molecule: CC1=C(C(=O)O)N2C(=O)C(NC(=O)C(N)c3ccc(OCC(=O)O)cc3)C2SC1 (racemic) [*08016]
target_of_assay: Strep. faecalis HH 34358
MIC: > 200 µg/mL

molecule: Cc1nnc(SCC2=C(C(=O)O)N3C(=O)C(NC(=O)C(N)c4ccc(OCC(=O)O)cc4)C3SC2)s1 (stereo not shown) [*59216]
target_of_assay: Strep. faecalis HH 34358
MIC: 50 to 200 µg/mL

molecule: Cn1nnnc1SCC1=C(C(=O)O)N2C(=O)C(NC(=O)[C@H](N)c3ccc(OCC(N)=O)cc3)C2SC1 (stereo partly shown) [Compound No. 32626]
target_of_assay: Strep. faecalis HH 34358
MIC: 200 µg/mL

molecule: CC1=C(C(=O)O)N2C(=O)C(NC(=O)[C@H](N)c3ccc(OCC(N)=O)cc3)C2SC1 (stereo partly shown) [Compound No. 00036]
target_of_assay: Strep. faecalis HH 34358
MIC: 50 µg/mL

molecule: Cn1nnnc1SCC1=C(C(=O)O)N2C(=O)C(NC(=O)[C@H](N)c3ccc(OCC(=O)O)cc3)C2SC1 (stereo partly shown) [Compound No. 42526]
target_of_assay: Strep. faecalis HH 34358
MIC: > 200 µg/mL

molecule: Cn1nnnc1SCC1=C(C(=O)O)N2C(=O)C(NC(=O)[C@H](N)c3ccc(NCC(=O)O)cc3)C2SC1 (stereo partly shown) [Compound No. 76746]
target_of_assay: Strep. faecalis HH 34358
MIC: 100 µg/mL

molecule: Cc1nnc(SCC2=C(C(=O)O)N3C(=O)C(NC(=O)[C@H](N)c4ccc(NCC(N)=O)cc4)C3SC2)s1 (stereo partly shown) [Compound No. 72546]
target_of_assay: Strep. faecalis HH 34358
MIC: 50 µg/mL

molecule: CC(=O)OCC1=C(C(=O)O)N2C(=O)C(NC(=O)[C@H](N)c3ccc(OCC(=O)O)cc3)C2SC1 (stereo partly shown) [Compound No. 60326]
target_of_assay: Strep. faecalis HH 34358
MIC: 200 µg/mL

molecule: NC(=O)COc1ccc([C@@H](N)C(=O)NC2C(=O)N3C(C(=O)O)=C(CSc4c[nH]nn4)CSC23)cc1 (stereo partly shown) [Compound No. 91726]
target_of_assay: Strep. faecalis HH 34358
MIC: 200 µg/mL

molecule: COC(=O)COc1ccc([C@@H](N)C(=O)NC2C(=O)N3C(C(=O)O)=C(CSc4nnnn4C)CSC23)cc1 (stereo partly shown) [Compound No. 26436]
target_of_assay: Strep. faecalis HH 34358
MIC: 50 µg/mL

molecule: N[C@@H](C(=O)NC1C(=O)N2C(C(=O)O)=C(CSc3c[nH]nn3)CSC12)c1ccc(SCC(=O)O)cc1 (stereo partly shown) [Compound No. 04726]
target_of_assay: Strep. faecalis HH 34358
MIC: 200 µg/mL

molecule: CC1=C(C(=O)O)N2C(=O)C(NC(=O)[C@H](N)c3ccc(SCC(=O)O)cc3)C2SC1 (stereo partly shown) [compound 99316]
target_of_assay: Strep. faecalis HH 34358
MIC: > 200 µg/mL

molecule: Cc1nnc(SCC2=C(C(=O)O)N3C(=O)C(NC(=O)[C@H](N)c4ccc(SCCC(=O)O)cc4)C3SC2)s1 (stereo partly shown) [Compound No. 61726]
target_of_assay: Strep. faecalis HH 34358
MIC: 50 µg/mL

Reference source for all entries: patent US4022895A
